Where do the numbers come from? From patent US8853215B2.

biological target: UniProtKB Q00724; test: Single administration test in mice, plasma RBP4 by ELISA; assay type: in vivo; conditions: male C57BL/6J or ICR mice, 50 mg/kg oral single dose, 7 hr after administration, mean±SD
assayEndpoint: RBP4 (% of initial/Control) 7 hr

Use these answered entries as a reference point.
[[record]]
compound = "CC(C)(C)c1ccccc1N1CCN(C(=O)C2(C(=O)O)CC2)CC1"
assayendpoint = "RBP4 (% of initial/Control) 7 hr"
recordedmeasurement = "56.7 ± 2.4 % of initial/Control"

[[record]]
compound = "CC(C)(C)c1ccccc1N1CCN(C(=O)C(=O)Nc2ccc(OCC(=O)O)cc2)CC1"
assayendpoint = "RBP4 (% of initial/Control) 7 hr"
recordedmeasurement = "60.3 ± 1.0 % of initial/Control"

[[record]]
compound = "CC(C)(C)c1ccccc1N1CCN(C(=O)C(=O)NCC(=O)O)CC1"
assayendpoint = "RBP4 (% of initial/Control) 7 hr"
recordedmeasurement = "38.1 ± 1.3 % of initial/Control"

[[record]]
compound = "CC(C)(C)c1ccccc1N1CCN(C(=O)C(=O)Nc2ccc(CCC(=O)O)cc2)CC1"
assayendpoint = "RBP4 (% of initial/Control) 7 hr"
recordedmeasurement = "67.0 ± 1.8 % of initial/Control"

[[record]]
compound = "CC(C)(C)c1ccccc1N1CCN(C(=O)C(=O)NCCc2ccc(C(=O)O)cc2)CC1"
assayendpoint = "RBP4 (% of initial/Control) 7 hr"
recordedmeasurement = "37.2 ± 1.0 % of initial/Control"

[[record]]
compound = "CC(C)(C)c1cc(Br)ccc1N1CCN(C(=O)CC(=O)O)CC1"
assayendpoint = "RBP4 (% of initial/Control) 7 hr"
recordedmeasurement = "44.4 ± 0.7 % of initial/Control"

[[record]]
compound = "Cc1nc(C(=O)N2CCN(c3ccccc3C(C)(C)C)CC2)cn1CC(=O)O"
assayendpoint = "RBP4 (% of initial/Control) 7 hr"
recordedmeasurement = "75.0 ± 10.8 % of initial/Control"

[[record]]
compound = "Cc1ccc(N2CCN(C(=O)C(=O)O)CC2)c(C(C)(C)C)c1"
assayendpoint = "RBP4 (% of initial/Control) 7 hr"
recordedmeasurement = "74.2 ± 15.5 % of initial/Control"

[[record]]
compound = "CC(C)(C)c1ccccc1N1CCN(C(=O)c2cc(OCC(=O)O)no2)CC1"
assayendpoint = "RBP4 (% of initial/Control) 7 hr"
recordedmeasurement = "36.9 ± 1.0 % of initial/Control"

[[record]]
compound = "CC(C)(C)c1ccccc1N1CCN(C(=O)c2ccc(SCC(=O)O)nc2)CC1"
assayendpoint = "RBP4 (% of initial/Control) 7 hr"
recordedmeasurement = "57.6 ± 5.6 % of initial/Control"


Q. Value lookup for RBP4 (% of initial/Control) 7 hr; key = CC(C)(C)c1ccccc1N1CCN(C(=O)C(=O)N2CCC(C(=O)O)C2)CC1 (stereo not shown)
A. 61.2 ± 2.3 % of initial/Control

Q. Value lookup for RBP4 (% of initial/Control) 7 hr; key = `CC(C)(C)c1ccccc1N1CCN(C(=O)c2ccc(OCC(=O)O)cc2)CC1`
A. 32.2 ± 2.2 % of initial/Control

Q. Value lookup for RBP4 (% of initial/Control) 7 hr; key = `CC(C)(C)c1ccccc1N1CCN(C(=O)Cn2cnnn2)CC1`
A. 58.9 ± 5.1 % of initial/Control
